- Target of assay: T1, EGFR on NR6 fibroblast cells (UniProt P00533 25-1210, limits assumed)
- T1 construct: whole, on cells; also called fibroblast cells expressing EGFR; NR6 fibroblasts
- Assay explanation: competition for binding to fibroblast cells, flow cytometry

>  <Binder>
EGF mutant clone 121 (competitor on NR6 cells) (ligand) NSDPKCPLSHEGYCLNDGVCMYIGTLDRYACNCVVGYVGERCQYRDLKWLALR

>  <IC50>
0.14 nM

$$$$
